B1: glmS ribozyme (parent)
chain: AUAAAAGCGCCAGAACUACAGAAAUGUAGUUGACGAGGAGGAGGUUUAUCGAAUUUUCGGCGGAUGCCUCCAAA

# Variants of: B1
# Assay Procedure: self-cleavage kobs at 40 uM GlcN6P; higher = faster cleavage; RNA array
# Condition Label: with glucosamine-6-phosphate
Fewer inactive variants are shown than the library holds.
Each entry below carries its recorded self-cleavage kobs at 40 uM GlcN6P.

- Mutation Descriptor: "A6C G29C A36U C61U"
  self-cleavage kobs at 40 uM GlcN6P: "< 1e-05 s⁻¹"
- Mutation Descriptor: "C50U A64C C67A"
  self-cleavage kobs at 40 uM GlcN6P: "< 1e-05 s⁻¹"
- Mutation Descriptor: "G13C G40C"
  self-cleavage kobs at 40 uM GlcN6P: "< 1e-05 s⁻¹"
- Mutation Descriptor: "G41C G66A U69C"
  self-cleavage kobs at 40 uM GlcN6P: "< 1e-05 s⁻¹"
- Mutation Descriptor: "G7U C34A"
  self-cleavage kobs at 40 uM GlcN6P: "< 1e-05 s⁻¹"
- Mutation Descriptor: "G38C A42G"
  self-cleavage kobs at 40 uM GlcN6P: "< 1e-05 s⁻¹"
- Mutation Descriptor: "G38C G40C A64U"
  self-cleavage kobs at 40 uM GlcN6P: "< 1e-05 s⁻¹"
- Mutation Descriptor: "G35A C67A"
  self-cleavage kobs at 40 uM GlcN6P: "< 1e-05 s⁻¹"
- Mutation Descriptor: "G9A G35A"
  self-cleavage kobs at 40 uM GlcN6P: "< 1e-05 s⁻¹"
- Mutation Descriptor: "A15C U47A"
  self-cleavage kobs at 40 uM GlcN6P: "0.000116 s⁻¹"
- Mutation Descriptor: "G13A C50A"
  self-cleavage kobs at 40 uM GlcN6P: "< 1e-05 s⁻¹"
- Mutation Descriptor: "A12U A52G"
  self-cleavage kobs at 40 uM GlcN6P: "8.7e-05 s⁻¹"
- Mutation Descriptor: "U31G A39U"
  self-cleavage kobs at 40 uM GlcN6P: "0.000179 s⁻¹"
- Mutation Descriptor: "A6U C8G A36G U45A A64U"
  self-cleavage kobs at 40 uM GlcN6P: "< 1e-05 s⁻¹"

Origin of the recorded values: the supplement of paper PMC7125110
